assay protocol: Solubility in bio-relevant media, water and pH buffers (HPLC of filtrate, XRPD of filter cake)
Assay type: physicochemical
condition label: SGF, 37 °C, pH 1.27, simulated gastric fluid, thermodynamic from solid, SGF, initial pH 1.27, 37° C., 800 rpm, 0.5 h; read-out: Solubility (mg/mL) 0.5 h
value type: solubility at 0.5 h

The compound CNC(=O)c1ccc(N2CCN(Cc3cnc4cc(C5CC5)c(=O)[nH]c4c3)CC2)cn1 [Freebase Form II] showed solubility at 0.5 h equal to > 5 mg/mL

###

assay protocol: Solubility in 0.5% MC and 0.5% MC pH 3 citrate buffer
Assay type: physicochemical
condition label: 0.5% MC (400 cPs), aqueous with cosolvent or surfactant or cyclodextrin, thermodynamic from solid, 0.5% MC, RT, ~2 hours
value type: solubility

The compound CNC(=O)c1ccc(N2CCN(Cc3cnc4cc(C5CC5)c(=O)[nH]c4c3)CC2)cn1 [Freebase Form II] showed solubility equal to < 10 µg/mL

###

assay protocol: Solubility in 0.5% MC and 0.5% MC pH 3 citrate buffer
Format: physicochemical
condition label: 0.5% MC (400 cPs) pH 3 citrate buffer, pH 3, aqueous with cosolvent or surfactant or cyclodextrin, thermodynamic from solid, 0.5% MC pH 3 buffer (100 mM citrate), initial pH 3.0, RT, ~2 hours
value type: solubility (µg/mL)
Dear colleague, please return just the value in µg/mL, with no unit written.

The molecule CNC(=O)c1ccc(N2CCN(Cc3cnc4cc(C5CC5)c(=O)[nH]c4c3)CC2)cn1 [Freebase Form II] showed solubility equal to 4500

###

assay protocol: Solubility in bio-relevant media, water and pH buffers (HPLC of filtrate, XRPD of filter cake)
Format: physicochemical
condition label: pH 5.0 buffer, 37 °C, pH 5, aqueous buffer, thermodynamic from solid
value type: solubility

The compound CNC(=O)c1ccc(N2CCN(Cc3cnc4cc(C5CC5)c(=O)[nH]c4c3)CC2)cn1 [Freebase Form II] showed solubility equal to ~50 µg/mL

###

assay protocol: Solubility in bio-relevant media, water and pH buffers (HPLC of filtrate, XRPD of filter cake)
Assay type: physicochemical
condition label: FaSSIF, 37 °C, pH 6.45, fassif, thermodynamic from solid, FaSSIF, initial pH 6.45, 37° C., 800 rpm, 24 h; read-out: Solubility (mg/mL) 24 h
value type: solubility at 24 h (mg/mL)
Dear colleague, please return just the value in mg/mL, with no unit written.

The compound CNC(=O)c1ccc(N2CCN(Cc3cnc4cc(C5CC5)c(=O)[nH]c4c3)CC2)cn1 [Freebase Form II] showed solubility at 24 h equal to 0.028

###

assay protocol: Solubility in bio-relevant media, water and pH buffers (HPLC of filtrate, XRPD of filter cake)
Format: physicochemical
condition label: FeSSIF, 37 °C, pH 4.98, fessif, thermodynamic from solid, FeSSIF, initial pH 4.98, 8 h; read-out: Solubility (mg/mL) 8 h
value type: solubility at 8 h (mg/mL)
Dear colleague, please return just the value in mg/mL, with no unit written.

The compound CNC(=O)c1ccc(N2CCN(Cc3cnc4cc(C5CC5)c(=O)[nH]c4c3)CC2)cn1 [Freebase Form II] showed solubility at 8 h equal to 0.105

###

assay protocol: Solubility in bio-relevant media, water and pH buffers (HPLC of filtrate, XRPD of filter cake)
Format: physicochemical
condition label: FaSSIF, pH 6.5, fassif, thermodynamic from solid, FaSSIF, initial pH 6.50, 8 h; read-out: Solubility (mg/mL) 8 h
value type: solubility at 8 h
Answer with the number, then the unit.

The compound CNC(=O)c1ccc(N2CCN(Cc3cnc4cc(C5CC5)c(=O)[nH]c4c3)CC2)cn1 [Freebase Form II] showed solubility at 8 h equal to 0.023 mg/mL

###

assay protocol: Solubility in bio-relevant media, water and pH buffers (HPLC of filtrate, XRPD of filter cake)
Assay type: physicochemical
condition label: water, 37 °C, pH 4.18, water, thermodynamic from solid, Water, initial pH 4.18, 37° C., 800 rpm, 2 h; read-out: Solubility (mg/mL) 2 h
value type: solubility at 2 h (mg/mL)
Dear colleague, please return just the value in mg/mL, with no unit written.

The molecule CNC(=O)c1ccc(N2CCN(Cc3cnc4cc(C5CC5)c(=O)[nH]c4c3)CC2)cn1 [Freebase Form II] showed solubility at 2 h equal to 0.008

###

assay protocol: Solubility in bio-relevant media, water and pH buffers (HPLC of filtrate, XRPD of filter cake)
Assay type: physicochemical
condition label: FaSSIF, pH 6.5, fassif, thermodynamic from solid, FaSSIF, initial pH 6.50, 2 h; read-out: Solubility (mg/mL) 2 h
value type: solubility at 2 h
Answer with the number, then the unit.

The compound CNC(=O)c1ccc(N2CCN(Cc3cnc4cc(C5CC5)c(=O)[nH]c4c3)CC2)cn1 [Freebase Form II] showed solubility at 2 h equal to 0.017 mg/mL
